assayTarget: BACE1 (Homo sapiens (Human))
Sequence (P56817 46-501, species assumed): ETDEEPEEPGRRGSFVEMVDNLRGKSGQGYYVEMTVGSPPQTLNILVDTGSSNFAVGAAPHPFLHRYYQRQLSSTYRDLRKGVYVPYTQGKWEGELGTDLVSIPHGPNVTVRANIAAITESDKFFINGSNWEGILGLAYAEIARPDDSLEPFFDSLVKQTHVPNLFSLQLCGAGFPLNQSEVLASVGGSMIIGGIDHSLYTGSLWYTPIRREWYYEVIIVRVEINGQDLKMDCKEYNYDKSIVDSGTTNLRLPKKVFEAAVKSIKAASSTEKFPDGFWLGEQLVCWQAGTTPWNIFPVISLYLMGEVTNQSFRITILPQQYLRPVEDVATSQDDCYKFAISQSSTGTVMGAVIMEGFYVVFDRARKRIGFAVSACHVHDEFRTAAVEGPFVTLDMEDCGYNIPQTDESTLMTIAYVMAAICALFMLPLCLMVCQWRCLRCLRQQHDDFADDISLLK
experimentalProtocol: BACE1 cell assay
Assay type: cell-based
conditionSet: read-out: IC50 IP (μM) BACE1 Cell

| compound | IC50 |
| --- | --- |
| COC(=O)[C@]12C[C@H]1[C@@](C)(c1cc(/C=C(/F)c3ccc(Cl)cn3)cnc1F)N=C(N)S2 | 5.44 µM |
| C[C@]1(c2cc(/C=C(\F)c3ccc(C#N)cn3)ccc2F)N=C(N)S[C@@]2(C(=O)N3CCC4(CCO4)C3)C[C@H]21 (stereo partly drawn) | 0.0003 µM |
| C[C@]1(c2cc(/C=C(\F)c3ccccn3)ccc2F)N=C(N)S[C@@]2(C(=O)N3CCOCC3)C[C@H]21 | 0.252 µM |
| C#CCOc1cnc(/C(F)=C/c2ccc(F)c([C@@]3(C)N=C(N)S[C@@]4(C(=O)N5CCOCC5)C[C@H]43)c2)cn1 | 0.0007 µM |
| C[C@]1(c2cc(/C=C(\F)c3ccc(Cl)cn3)ccc2F)N=C(N)S[C@@]2(CC#N)C[C@H]21 | 0.446 µM |
| COC[C@]12C[C@H]1[C@@](CF)(c1cc(/C=C(/F)c3ccc(Cl)cn3)ccc1F)N=C(N)S2 | 1.6 µM |

---

assayTarget: Cathepsin D (CatD) (Homo sapiens (Human))
Sequence (P07339 65-412, species assumed): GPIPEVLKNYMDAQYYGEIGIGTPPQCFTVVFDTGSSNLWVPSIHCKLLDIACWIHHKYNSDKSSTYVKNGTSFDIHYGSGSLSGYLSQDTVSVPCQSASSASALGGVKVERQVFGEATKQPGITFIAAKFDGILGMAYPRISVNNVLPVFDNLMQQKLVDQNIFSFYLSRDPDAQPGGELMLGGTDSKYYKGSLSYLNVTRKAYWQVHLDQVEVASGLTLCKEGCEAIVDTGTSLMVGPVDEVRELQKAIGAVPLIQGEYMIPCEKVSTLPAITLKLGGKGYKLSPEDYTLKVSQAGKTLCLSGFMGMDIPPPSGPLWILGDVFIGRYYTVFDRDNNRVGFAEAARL
experimentalProtocol: CatD assay
Assay type: biochemical
conditionSet: read-out: IC50 IP (μM) CatD
observable: IC50 (µM)

| compound | reportedMeasurement |
| --- | --- |
| C[C@]1(c2cc(/C=C(\F)c3ccc(C#N)cn3)ccc2F)N=C(N)S[C@@]2(C(=O)N3CC[C@H](F)C3)C[C@H]21 | 131 |
| CC1(C)CC2CC(C)(CN2C(=O)[C@]23C[C@H]2[C@@](C)(c2cc(/C=C(\F)c4ccc(C#N)cn4)ccc2F)N=C(N)S3)C1 (stereo partly shown) | 4.18 |
| CNC(=O)[C@]12C[C@H]1[C@@](C)(c1cc(/C=C(\F)c3cnc(C#C[Si](C)(C)C)cn3)ccc1F)N=C(N)S2 | 146 |
| CN(C)C(=O)[C@]12C[C@H]1[C@@](C)(c1cc(/C=C(\F)c3ccc(C#N)cc3)ccc1F)N=C(N)S2 | 442 |
| C#CCOc1cnc(/C(F)=C/c2ccc(F)c([C@@]3(C)N=C(N)S[C@@]4(C(=O)N(C)C)C[C@H]43)c2)cn1 | 106 |
| C[C@@H]1CCN1C(=O)[C@]12C[C@H]1[C@@](C)(c1cc(/C=C(\F)c3ccc(Cl)cn3)ccc1F)N=C(N)S2 | 132 |
| C[C@]1(c2cc(/C=C(/F)c3ccc(C#N)cn3)ccc2F)N=C(N)S[C@@]2(C(=O)N3CCOCC3)C[C@H]21 | 62.4 |
| CC(=O)COc1cnc(/C(F)=C/c2cnc(F)c([C@@]3(C)N=C(N)S[C@@]4(C(=O)N(C)C)C[C@H]43)c2)cn1 | 175 |
| CN(C)C(=O)[C@]12C[C@H]1[C@@](C)(c1cc(/C=C(\F)c3cnc(C#CC4CC4)cn3)ccc1F)N=C(N)S2 | 71.9 |
| CN(C)C(=O)[C@]12C[C@H]1[C@@](C)(c1cc(/C=C(\F)c3cnc(OCC4CC4(F)F)cn3)ccc1F)N=C(N)S2 (stereo partly shown) | 121 |
| C#CCOc1cnc(/C(F)=C/c2cnc(F)c([C@@]3(C)N=C(N)S[C@@]4(C(=O)N5CC[C@H](F)C5)C[C@H]43)c2)cn1 | 115 |
| CC(Oc1cnc(/C(F)=C/c2ccc(F)c([C@@]3(C)N=C(N)S[C@@]4(C(=O)N(C)C)C[C@H]43)c2)cn1)c1ncco1 (stereo partly shown) | 93.8 |
| CN(C)C(=O)[C@]12C[C@H]1[C@@](C)(c1cc(/C=C(\F)c3cn4cc(C#N)ccc4n3)ccc1F)N=C(N)S2 | 53.1 |
| COC[C@@]12SC(N)=N[C@](C)(c3cc(/C=C(\F)c4ccc(C#N)cn4)ccc3F)[C@@H]1C2(F)F | 90.7 |
| C[C@]1(c2cc(/C=C(\F)c3ccc(C#N)cn3)cnc2F)N=C(N)S[C@@]2(C(=O)N3CC[C@@H](F)C3)C[C@H]21 | 653 |
| CC#Cc1cnc(/C(F)=C/c2ccc(F)c([C@@]3(C)N=C(N)S[C@@]4(C(=O)NC)C[C@H]43)c2)cn1 | 156 |
| C[C@]1(c2cc(/C=C(\F)c3ccc(C#N)cn3)ccc2F)N=C(N)S[C@@]2(C(=O)N3CCOC[C@@H]3CO)C[C@H]21 | 148 |
| COC(=O)[C@]12C[C@H]1[C@@](C)(c1cc(/C=C(\F)c3ccc(Cl)cn3)cc(F)c1F)N=C(N)S2 | 200 |
| C[C@]1(c2cc(/C=C(\F)c3ccc(Cl)cn3)ccc2F)N=C(N)S[C@@]2(C(N)=O)C[C@H]21 | 205 |
| C[C@]1(c2cc(/C=C(\F)c3ccc(C#N)cn3)ccc2F)N=C(N)S[C@@]2(C(=O)NC3CCOCC3)C[C@H]21 | 144 |
| CN(C)C(=O)[C@]12C[C@H]1[C@@](C)(c1cc(/C=C(\F)c3ccc(Br)cn3)ccc1F)N=C(N)S2 | 519 |
| CNC(=O)[C@]12C[C@H]1[C@@](C)(c1cc(/C=C(\F)c3ccc(C#CC4CC4)cn3)ccc1F)N=C(N)S2 | 39.8 |
| COC(CNC(=O)[C@]12C[C@H]1[C@@](C)(c1cc(/C=C(\F)c3ccc(C#N)cn3)ccc1F)N=C(N)S2)OC | 6.8 |
| CN(C)C(=O)[C@]12C[C@H]1[C@@](C)(c1cc(/C=C(\F)c3cnc(OCC(F)(F)C(F)F)cn3)cnc1F)N=C(N)S2 | 290 |
| COC[C@H](C)Oc1cnc(/C(F)=C/c2ccc(F)c([C@@]3(C)N=C(N)S[C@@]4(C(=O)N(C)C)C[C@H]43)c2)cn1 | 134 |
